Biological target: T1, hIL-4Rα on cells (human, UniProt P24394 26-825)
T1 sequence: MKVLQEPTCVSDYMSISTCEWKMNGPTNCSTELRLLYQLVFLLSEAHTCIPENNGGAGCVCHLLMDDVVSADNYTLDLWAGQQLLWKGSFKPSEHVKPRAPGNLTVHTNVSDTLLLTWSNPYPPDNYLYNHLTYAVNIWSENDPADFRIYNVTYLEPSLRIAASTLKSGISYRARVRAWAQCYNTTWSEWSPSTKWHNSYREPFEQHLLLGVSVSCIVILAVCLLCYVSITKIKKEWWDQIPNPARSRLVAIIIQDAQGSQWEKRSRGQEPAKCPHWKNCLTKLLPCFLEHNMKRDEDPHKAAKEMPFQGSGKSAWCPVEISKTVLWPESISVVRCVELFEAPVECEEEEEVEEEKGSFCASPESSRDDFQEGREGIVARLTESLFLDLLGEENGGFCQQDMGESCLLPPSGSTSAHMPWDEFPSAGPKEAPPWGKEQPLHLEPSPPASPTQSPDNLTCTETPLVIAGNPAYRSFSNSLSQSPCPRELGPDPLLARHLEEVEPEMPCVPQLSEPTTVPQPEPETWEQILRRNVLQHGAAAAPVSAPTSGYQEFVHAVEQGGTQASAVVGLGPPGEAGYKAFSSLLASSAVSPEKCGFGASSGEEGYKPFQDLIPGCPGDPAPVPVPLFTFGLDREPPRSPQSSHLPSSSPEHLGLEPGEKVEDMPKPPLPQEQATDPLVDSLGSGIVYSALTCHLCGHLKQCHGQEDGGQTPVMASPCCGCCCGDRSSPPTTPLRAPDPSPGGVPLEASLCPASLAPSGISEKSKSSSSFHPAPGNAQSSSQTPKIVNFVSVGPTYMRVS
Assay: FACS on HEK293 cells, competitor biotin-hIL-4;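 note: HEK293 cells stably co-expressing hIL-13Rα and hIL-4Rα, stained for 1 h at 4 °C, read-out as mean fluorescence intensity by flow cytometry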
Attribute Measured: Relative Blockade of IL-4 Binding IC50

// Relative Blockade of IL-4 Binding IC50 lookup, key: Construct 38 (mAb471) (antibody, IgG4, V domains shown, VH/VL only) VH: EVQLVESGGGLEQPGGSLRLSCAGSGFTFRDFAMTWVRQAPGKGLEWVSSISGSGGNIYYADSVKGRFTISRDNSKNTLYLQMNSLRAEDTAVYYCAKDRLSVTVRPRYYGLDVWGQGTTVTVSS VL: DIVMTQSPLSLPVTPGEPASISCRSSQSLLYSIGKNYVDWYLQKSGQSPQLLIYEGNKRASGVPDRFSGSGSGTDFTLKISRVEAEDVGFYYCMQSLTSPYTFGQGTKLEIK
0.981 relative to dupilumab
